Tested on: buckwheat, wild
Assay: Test D postemergence
Assay type: in vivo, Polygonum convolvulus
Details: 125 g ai/ha, scale 0 to 100
Plant response rating: Buckwheat, Wild reference
Quick one: just the number, no unit, thanks!

Sample records with Plant response rating: Buckwheat, Wild:
{"compound": "COc1nc(-c2ccc(Cl)cc2)nn1Cc1ccnc(C(F)(F)F)c1 [Compound 28]", "experimental_result": 95}
{"compound": "CCOc1nc(-c2ccccc2)nn1Cc1ccnc(C(F)(F)F)c1 [Compound 27]", "experimental_result": 85}
{"compound": "CCc1nc(-c2ccc(C(F)(F)F)cc2)nn1Cc1ccnc(C(F)(F)F)c1 [Compound 1]", "experimental_result": 100}

What value of Plant response rating: Buckwheat, Wild on buckwheat, wild does FC(F)(F)COc1nc(-c2ccc(Cl)cc2)nn1Cc1ccnc(C(F)(F)F)c1 [Compound 31] have?
75

---

Plant response rating (scale of 0 to 100 where 0 is no effect and 100 is complete control) reference
System: crabgrass, large
Assay: Test C postemergence
Format: in vivo, Digitaria sanguinalis
Settings: 62 g ai/ha
Quick one: just the number, no unit, thanks!

Sample records with Plant response rating (scale of 0 to 100 where 0 is no effect and 100 is complete control):
{"molecule": "FC(F)(F)COc1nc(-c2ccccc2)nn1Cc1ccnc(C(F)(F)F)c1 [Compound 24]", "experimental_result": 10}
{"molecule": "Fc1ccc(-c2nc(OCC(F)(F)F)n(Cc3ccnc(C(F)(F)F)c3)n2)cc1 [Compound 30]", "experimental_result": 15}
{"molecule": "COc1nc(-c2ccc(Cl)cc2)nn1Cc1ccnc(C(F)(F)F)c1 [Compound 28]", "experimental_result": 10}

Which Plant response rating (scale of 0 to 100 where 0 is no effect and 100 is complete control) is listed for CCc1nc(-c2ccc(C(F)(F)F)cc2)nn1Cc1ccnc(C(F)(F)F)c1 [Compound 1] ?
5

---

Test system: crabgrass, large
Assay: Test C postemergence
Format: in vivo, Digitaria sanguinalis
Conditions: 31 g ai/ha
Plant response rating (scale of 0 to 100 where 0 is no effect and 100 is complete control) reference
Quick one: just the number, no unit, thanks!

Sample records with Plant response rating (scale of 0 to 100 where 0 is no effect and 100 is complete control):
{"smiles_structure": "CCCc1nc(-c2ccc(F)cc2)nn1Cc1ccnc(C(F)(F)F)c1", "experimental_result": 10}
{"smiles_structure": "CCOc1nc(-c2ccc(Cl)cc2)nn1Cc1ccnc(C(F)(F)F)c1", "experimental_result": 20}
{"smiles_structure": "CCc1nc(-c2ccc(C(F)(F)F)cc2)nn1Cc1ccnc(C(F)(F)F)c1", "experimental_result": 5}

Consider now this further molecule.
Which Plant response rating (scale of 0 to 100 where 0 is no effect and 100 is complete control) is listed for `CCOc1nc(-c2ccccc2)nn1Cc1ccnc(C(F)(F)F)c1` ?
10

---

Tested on: kochia
Assay: Test A preemergence
Assay type: in vivo, Kochia scoparia
Settings: 125 g ai/ha, 0 to 100 scale (0 no effect, 100 complete control)
readout_kind: Plant response rating, Kochia
Quick one: just the number, no unit, thanks!

{"compound": "Cc1nc(-c2ccc(F)cc2)nn1Cc1ccnc(C(F)(F)F)c1 [Compound 38]", "measured_target": "kochia", "Plant response rating, Kochia": 100}
{"compound": "Fc1ccc(-c2nc(OCC(F)(F)F)n(Cc3ccnc(C(F)(F)F)c3)n2)cc1 [Compound 30]", "measured_target": "kochia", "Plant response rating, Kochia": 100}
{"compound": "CCc1nc(-c2ccncc2)nn1Cc1ccnc(C(F)(F)F)c1 [Compound 39]", "measured_target": "kochia", "Plant response rating, Kochia": 0}

Consider now this further compound.
Which Plant response rating, Kochia is listed for CCCOc1nc(-c2ccccc2)nn1Cc1ccnc(C(F)(F)F)c1 [Compound 33] ?
60

---

System: pigweed
Assay: Test A preemergence
Format: in vivo, Amaranthus retroflexus
Settings: 500 g ai/ha, 0 to 100 scale (0 no effect, 100 complete control), approx. 10 d
readout_kind: Plant response rating, Pigweed
Quick one: just the number, no unit, thanks!

Sample records with Plant response rating, Pigweed:
{"compound": "FC(F)(F)COc1nc(-c2ccccc2)nn1Cc1ccnc(C(F)(F)F)c1", "measured_target": "pigweed", "Plant response rating, Pigweed": 100}
{"compound": "CCCn1nc(-c2ccc(F)cc2)nc1C(O)c1ccnc(C(F)(F)F)c1 (stereo not drawn)", "measured_target": "pigweed", "Plant response rating, Pigweed": 100}
{"compound": "COc1nc(-c2ccccc2)nn1Cc1ccnc(C(F)(F)F)c1", "measured_target": "pigweed", "Plant response rating, Pigweed": 100}
{"compound": "CCOc1nc(-c2ccccc2)nn1Cc1ccnc(C(F)(F)F)c1", "measured_target": "pigweed", "Plant response rating, Pigweed": 100}
{"compound": "CCCn1nc(-c2ccc(F)cc2)nc1C(=O)c1ccnc(C(F)(F)F)c1", "measured_target": "pigweed", "Plant response rating, Pigweed": 90}
{"compound": "Cc1nc(-c2ccc(C(F)(F)F)cc2)nn1Cc1cccc(C(F)(F)F)c1", "measured_target": "pigweed", "Plant response rating, Pigweed": 80}

Which Plant response rating, Pigweed is listed for `CCCc1nc(-c2ccc(Cl)cc2)nn1Cc1ccnc(C(F)(F)F)c1` ?
100

Which Plant response rating, Pigweed is listed for `CCn1nc(-c2ccc(F)cc2)nc1Cc1ccnc(C(F)(F)F)c1` ?
100

Which Plant response rating, Pigweed is listed for `Cn1nc(-c2ccc(F)cc2)nc1Cc1ccnc(C(F)(F)F)c1` ?
100

---

Tested on: pigweed
Assay: Test C preemergence
Type: in vivo, Amaranthus retroflexus
Settings: Pigweed, preemergence, 250 g ai/ha
Source text: […]
readout_kind: Plant response rating (scale of 0 to 100 where 0 is no effect and 100 is complete control)
Quick one: just the number, no unit, thanks!

Sample records with Plant response rating (scale of 0 to 100 where 0 is no effect and 100 is complete control):
{"smiles_structure": "CCOc1nc(-c2ccc(C(F)(F)F)cc2)nn1Cc1ccnc(C(F)(F)F)c1", "experimental_result": 100}
{"smiles_structure": "FC(F)(F)COc1nc(-c2ccccc2)nn1Cc1ccnc(C(F)(F)F)c1", "experimental_result": 100}
{"smiles_structure": "COc1nc(-c2ccc(F)cc2)nn1Cc1ccnc(C(F)(F)F)c1", "experimental_result": 98}

Consider now this further compound.
What value of Plant response rating (scale of 0 to 100 where 0 is no effect and 100 is complete control) on pigweed does `CCOc1nc(-c2ccccc2)nn1Cc1ccnc(C(F)(F)F)c1` have?
100

---

Plant response rating, Barnyardgrass reference
Test system: barnyardgrass
Assay: Test A preemergence
Assay type: in vivo, Echinochloa crus-galli
Conditions: 500 g ai/ha, 0 to 100 scale (0 no effect, 100 complete control), approx. 10 d
Quick one: just the number, no unit, thanks!

{"compound": "COc1nc(-c2ccc(Cl)cc2)nn1Cc1ccnc(C(F)(F)F)c1 [Compound 28]", "Plant response rating, Barnyardgrass": 90}
{"compound": "Cc1nc(-c2ccc(C(F)(F)F)cc2)nn1Cc1ccnc(C(F)(F)F)c1 [Compound 7]", "Plant response rating, Barnyardgrass": 80}
{"compound": "CCCn1nc(-c2ccc(F)cc2)nc1C(=O)c1ccnc(C(F)(F)F)c1 [Compound 20]", "Plant response rating, Barnyardgrass": 80}
{"compound": "CCCc1nc(-c2ccc(F)c(F)c2)nn1Cc1ccnc(C(F)(F)F)c1 [Compound 23]", "Plant response rating, Barnyardgrass": 100}

Consider now this further compound.
Which Plant response rating, Barnyardgrass is listed for CCc1nc(-c2ccc(F)cc2)nn1Cc1ccnc(C(F)(F)F)c1 [Compound 2] ?
80

---

Plant response rating: Radish, Wild reference
System: radish, wild
Assay: Test D postemergence
Format: in vivo, Raphanus raphanistrum
Details: 16 g ai/ha, scale 0 to 100
Excerpt: […]
Quick one: just the number, no unit, thanks!

Sample records with Plant response rating: Radish, Wild:
{"molecule": "CCOc1nc(-c2ccccc2)nn1Cc1ccnc(C(F)(F)F)c1 [Compound 27]", "experimental_result": 85}
{"molecule": "CCOc1nc(-c2ccc(C(F)(F)F)cc2)nn1Cc1ccnc(C(F)(F)F)c1 [Compound 35]", "experimental_result": 85}
{"molecule": "FC(F)(F)COc1nc(-c2ccc(Cl)cc2)nn1Cc1ccnc(C(F)(F)F)c1 [Compound 31]", "experimental_result": 95}

Consider now this further molecule.
Which Plant response rating: Radish, Wild is listed for COc1nc(-c2ccc(Cl)cc2)nn1Cc1ccnc(C(F)(F)F)c1 [Compound 28] ?
85

---

Plant response rating, Ragweed reference
Test system: ragweed
Test: Test A postemergence
Assay type: in vivo, Ambrosia elatior
Conditions: 125 g ai/ha, 0 to 100 scale (0 no effect, 100 complete control), approx. 10 d
Quick one: just the number, no unit, thanks!

{"smiles_structure": "FC(F)(F)COc1nc(-c2ccccc2)nn1Cc1ccnc(C(F)(F)F)c1", "Plant response rating, Ragweed": 50}
{"smiles_structure": "CCOc1nc(-c2ccccc2)nn1Cc1ccnc(C(F)(F)F)c1", "Plant response rating, Ragweed": 50}
{"smiles_structure": "COc1nc(-c2ccc(Cl)cc2)nn1Cc1ccnc(C(F)(F)F)c1", "Plant response rating, Ragweed": 20}

Which Plant response rating, Ragweed is listed for `Cc1nc(-c2ccc(OC(F)(F)F)cc2)nn1Cc1ccnc(C(F)(F)F)c1` ?
0

Which Plant response rating, Ragweed is listed for `CCOc1nc(-c2ccc(C(F)(F)F)cc2)nn1Cc1ccnc(C(F)(F)F)c1` ?
60

Which Plant response rating, Ragweed is listed for `CCOc1nc(-c2ccc(Cl)cc2)nn1Cc1ccnc(C(F)(F)F)c1` ?
50

The reported numbers originate from patent US10681909B2.
